Target: PARP-1 FL (Homo sapiens (Human), UniProt P09874)
Sequence (P09874 whole entry): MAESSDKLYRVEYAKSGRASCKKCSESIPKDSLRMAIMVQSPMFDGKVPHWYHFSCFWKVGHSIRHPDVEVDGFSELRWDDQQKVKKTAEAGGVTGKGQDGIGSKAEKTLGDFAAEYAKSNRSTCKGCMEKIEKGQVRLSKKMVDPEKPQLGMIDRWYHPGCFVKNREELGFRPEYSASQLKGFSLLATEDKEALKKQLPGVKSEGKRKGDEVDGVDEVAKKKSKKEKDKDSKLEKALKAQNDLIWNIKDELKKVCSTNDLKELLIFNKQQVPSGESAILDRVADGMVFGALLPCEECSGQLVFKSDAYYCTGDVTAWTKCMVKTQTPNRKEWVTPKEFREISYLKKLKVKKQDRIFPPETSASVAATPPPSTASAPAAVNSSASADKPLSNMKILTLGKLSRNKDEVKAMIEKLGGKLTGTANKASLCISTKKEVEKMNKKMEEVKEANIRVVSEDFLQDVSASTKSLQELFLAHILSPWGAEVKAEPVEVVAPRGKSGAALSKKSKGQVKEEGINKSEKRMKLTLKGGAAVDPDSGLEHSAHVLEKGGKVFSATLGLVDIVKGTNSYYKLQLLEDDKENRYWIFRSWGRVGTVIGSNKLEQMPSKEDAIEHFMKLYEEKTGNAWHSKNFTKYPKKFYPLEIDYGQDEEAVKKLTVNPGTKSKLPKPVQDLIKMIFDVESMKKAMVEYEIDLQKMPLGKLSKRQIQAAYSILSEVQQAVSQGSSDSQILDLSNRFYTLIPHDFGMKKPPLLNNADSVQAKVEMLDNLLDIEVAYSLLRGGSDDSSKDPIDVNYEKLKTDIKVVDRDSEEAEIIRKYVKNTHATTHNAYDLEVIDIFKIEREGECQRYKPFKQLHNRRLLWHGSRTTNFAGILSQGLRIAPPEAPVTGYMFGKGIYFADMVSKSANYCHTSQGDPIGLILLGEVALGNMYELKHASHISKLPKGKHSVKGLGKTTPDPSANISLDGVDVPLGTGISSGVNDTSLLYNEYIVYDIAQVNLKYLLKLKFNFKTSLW
Assay: Fluorescence polarization probe displacement assay, PARP-1
Type: binding
Details: compound P1 as the probe, 250 nM PARP-1
Assay Metric: Kd

Req: # value lookup — system PARP-1 FL (Homo sapiens (Human), UniProt P09874), readout Kd, item COc1ccc(CN2CCC(N3Cc4cccc(C(N)=O)c4C3=O)CC2)cc1
Resp: < 30 nM

Req: # value lookup — system PARP-1 FL (Homo sapiens (Human), UniProt P09874), readout Kd, item Cc1ccc(CN2CCC(N3Cc4cccc(C(N)=O)c4C3=O)CC2)cc1C
Resp: < 30 nM

Req: # value lookup — system PARP-1 FL (Homo sapiens (Human), UniProt P09874), readout Kd, item NC(=O)c1cccc2c1C(=O)N(CC1CCN(Cc3ccc(F)cc3)CC1)C2
Resp: < 30 nM

Req: # value lookup — system PARP-1 FL (Homo sapiens (Human), UniProt P09874), readout Kd, item NC(=O)c1cccc2c1C(=O)N(C1CCN(CC3CCN(Cc4ccccc4)CC3)CC1)C2
Resp: < 30 nM

Req: # value lookup — system PARP-1 FL (Homo sapiens (Human), UniProt P09874), readout Kd, item CCc1ccc(CN2CCC(N3Cc4cccc(C(N)=O)c4C3=O)CC2)cc1
Resp: < 30 nM

Req: # value lookup — system PARP-1 FL (Homo sapiens (Human), UniProt P09874), readout Kd, item COCCN1CCC(N2Cc3cccc(C(N)=O)c3C2=O)CC1
Resp: 110 nM

Req: # value lookup — system PARP-1 FL (Homo sapiens (Human), UniProt P09874), readout Kd, item CCOc1cccc(CN2CCC(N3Cc4cccc(C(N)=O)c4C3=O)CC2)c1
Resp: 110 nM

Req: # value lookup — system PARP-1 FL (Homo sapiens (Human), UniProt P09874), readout Kd, item CCCOc1ccc(CN2CCC(N3Cc4cccc(C(N)=O)c4C3=O)CC2)cc1
Resp: < 30 nM

Req: # value lookup — system PARP-1 FL (Homo sapiens (Human), UniProt P09874), readout Kd, item Cc1c(CN2CCC(N3Cc4cccc(C(N)=O)c4C3=O)CC2)cnn1C
Resp: 130 nM

Req: # value lookup — system PARP-1 FL (Homo sapiens (Human), UniProt P09874), readout Kd, item Cc1ccc(CN2CCC(N3Cc4cccc(C(N)=O)c4C3=O)CC2)s1
Resp: < 30 nM

Req: # value lookup — system PARP-1 FL (Homo sapiens (Human), UniProt P09874), readout Kd, item NC(=O)c1cccc2c1C(=O)N(C1CCN(Cc3ccccc3F)CC1)C2
Resp: < 30 nM

Req: # value lookup — system PARP-1 FL (Homo sapiens (Human), UniProt P09874), readout Kd, item NC(=O)c1cccc2c1C(=O)N(C1CCN(Cc3cccc4[nH]ccc34)CC1)C2
Resp: 34 nM

Req: # value lookup — system PARP-1 FL (Homo sapiens (Human), UniProt P09874), readout Kd, item COC[C@H]1CC[C@H](N2CCC(N3Cc4cccc(C(N)=O)c4C3=O)CC2)CC1
Resp: < 30 nM

Req: # value lookup — system PARP-1 FL (Homo sapiens (Human), UniProt P09874), readout Kd, item Cc1ccsc1CN1CCC(N2Cc3cccc(C(N)=O)c3C2=O)CC1
Resp: < 30 nM

----------
Assay: Pharmacokinetics and oral bioavailability in the mouse
Conditions: male, Balb Nu/Nu, plasma, po, 10 mg/kg
Consider the following compounds; for each one, report its half-life.
Don't forget the unit after the value.

Req: Consider the compound NC(=O)c1cccc2c1C(=O)N(C1CCN([C@H]3CC[C@@H](CO)CC3)CC1)C2 and give its measured half-life.
Resp: 1.75 h

Req: Consider the compound NC(=O)c1cccc2c1C(=O)N(C1CCN([C@H]3CC[C@H](CO)CC3)CC1)C2 and give its measured half-life.
Resp: 1.42 h

Req: Consider the compound CC(C)n1cc(CN2CCC(N3Cc4cccc(C(N)=O)c4C3=O)CC2)c2ccccc21 and give its measured half-life.
Resp: 1.84 h

----------
Target: PARP-3 FL (Homo sapiens (Human))
Sequence (Q9Y6F1 whole entry): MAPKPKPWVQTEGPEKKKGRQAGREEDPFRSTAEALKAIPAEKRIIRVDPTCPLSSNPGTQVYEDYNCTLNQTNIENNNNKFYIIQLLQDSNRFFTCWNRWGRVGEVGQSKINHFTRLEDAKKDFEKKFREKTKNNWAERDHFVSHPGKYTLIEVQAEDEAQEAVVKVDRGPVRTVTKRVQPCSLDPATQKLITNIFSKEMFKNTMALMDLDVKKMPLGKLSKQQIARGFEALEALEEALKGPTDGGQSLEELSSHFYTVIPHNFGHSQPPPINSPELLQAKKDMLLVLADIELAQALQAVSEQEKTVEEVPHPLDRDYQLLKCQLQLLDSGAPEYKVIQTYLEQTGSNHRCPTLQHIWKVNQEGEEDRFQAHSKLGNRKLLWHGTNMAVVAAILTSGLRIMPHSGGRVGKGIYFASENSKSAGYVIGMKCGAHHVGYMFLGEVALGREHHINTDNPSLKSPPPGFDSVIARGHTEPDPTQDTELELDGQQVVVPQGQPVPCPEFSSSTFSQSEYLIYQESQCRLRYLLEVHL
Assay: Fluorescence polarization probe displacement assay, PARP-3
Format: binding
Conditions: half maximal displacement concentration
Consider the following molecules; for each one, report its DC50.
The reply should contain only the number, in nM.

Req: Consider the molecule NC(=O)c1cc(F)cc2c1C(=O)N(C1CCN(C3CCC(Cl)(Cl)CC3)CC1)C2 and give its measured DC50.
Resp: 1080

Req: Consider the molecule NC(=O)c1cc(Cl)cc2c1C(=O)N(C1CCN(C3CCC(F)(F)CC3)CC1)C2 and give its measured DC50.
Resp: 790

Req: Consider the molecule CO[C@H]1CC[C@@H](N2CCC(N3Cc4cccc(C(N)=O)c4C3=O)CC2)CC1 and give its measured DC50.
Resp: 3700

----------
Biological target: PARP-3 FL (Homo sapiens (Human))
Assay: Fluorescence polarization probe displacement assay, PARP-3
Format: binding
Details: half maximal displacement concentration
// returns 0 (no) unless DC50 is strictly below 3 µM, in which case 1 (yes)

Req: Below 3 µM on DC50? Entry NC(=O)c1cccc2c1C(=O)N(C1CCN([C@H]3CC[C@H](CO)CC3)CC1)C2 [Compound 4]
Resp: 0 (no)

Req: Below 3 µM on DC50? Entry COCCN1CCC(N2Cc3cccc(C(N)=O)c3C2=O)CC1 [Compound 106]
Resp: 1 (yes)

Req: Below 3 µM on DC50? Entry CO[C@H]1CC[C@H](N2CCC(N3Cc4cccc(C(N)=O)c4C3=O)CC2)CC1 [Compound 2]
Resp: 0 (no)

Req: Below 3 µM on DC50? Entry NC(=O)c1cccc2c1C(=O)N(C1CCN(C3CCC(F)(F)CC3)CC1)C2 [Compound 7]
Resp: 0 (no)

Req: Below 3 µM on DC50? Entry CC(C)n1cc(CN2CCC(N3Cc4cccc(C(N)=O)c4C3=O)CC2)c2ccccc21 [Compound 32]
Resp: 1 (yes)

Req: Below 3 µM on DC50? Entry NC(=O)c1cccc2c1C(=O)N(C1CCN([C@H]3CC[C@@H](CO)CC3)CC1)C2 [Compound 3]
Resp: 1 (yes)

Req: Below 3 µM on DC50? Entry NC(=O)c1cc(F)cc2c1C(=O)N(C1CCN(C3CCC(=O)CC3)CC1)C2 [Compound 103]
Resp: 0 (no)

Req: Below 3 µM on DC50? Entry NC(=O)c1cc(F)cc2c1C(=O)N(C1CCN(C3CCC(F)(F)CC3)CC1)C2 [Compound 99]
Resp: 1 (yes)

----------
Molecular target: PARP-1 FL (Homo sapiens (Human), UniProt P09874)
Test: Fluorescence polarization probe displacement assay, PARP-1
Assay type: binding
Conditions: compound P3 as the probe, 100 nM PARP-1
Assay Metric: pKd
Expect pKd as a plain number equal to -log10 of the molar concentration.

Req: Consider the compound NC(=O)c1cccc2c1C(=O)N(C1CCN([C@H]3CC[C@H](CO)CC3)CC1)C2 and give its measured pKd.
Resp: 7.70

Req: Consider the compound NC(=O)c1cccc2c1C(=O)N(C1CCN([C@H]3CC[C@@H](CO)CC3)CC1)C2 and give its measured pKd.
Resp: 7.89

Req: Consider the compound CC(C)n1cc(CN2CCC(N3Cc4cccc(C(N)=O)c4C3=O)CC2)c2ccccc21 and give its measured pKd.
Resp: 7.40

Req: Consider the compound CO[C@H]1CC[C@@H](N2CCC(N3Cc4cccc(C(N)=O)c4C3=O)CC2)CC1 and give its measured pKd.
Resp: 7.22

Req: Consider the compound CO[C@H]1CC[C@H](N2CCC(N3Cc4cccc(C(N)=O)c4C3=O)CC2)CC1 and give its measured pKd.
Resp: 7.60

----------
Molecular target: PARP-2 FL (Homo sapiens (Human), UniProt Q9UGN5)
Sequence (Q9UGN5 whole entry): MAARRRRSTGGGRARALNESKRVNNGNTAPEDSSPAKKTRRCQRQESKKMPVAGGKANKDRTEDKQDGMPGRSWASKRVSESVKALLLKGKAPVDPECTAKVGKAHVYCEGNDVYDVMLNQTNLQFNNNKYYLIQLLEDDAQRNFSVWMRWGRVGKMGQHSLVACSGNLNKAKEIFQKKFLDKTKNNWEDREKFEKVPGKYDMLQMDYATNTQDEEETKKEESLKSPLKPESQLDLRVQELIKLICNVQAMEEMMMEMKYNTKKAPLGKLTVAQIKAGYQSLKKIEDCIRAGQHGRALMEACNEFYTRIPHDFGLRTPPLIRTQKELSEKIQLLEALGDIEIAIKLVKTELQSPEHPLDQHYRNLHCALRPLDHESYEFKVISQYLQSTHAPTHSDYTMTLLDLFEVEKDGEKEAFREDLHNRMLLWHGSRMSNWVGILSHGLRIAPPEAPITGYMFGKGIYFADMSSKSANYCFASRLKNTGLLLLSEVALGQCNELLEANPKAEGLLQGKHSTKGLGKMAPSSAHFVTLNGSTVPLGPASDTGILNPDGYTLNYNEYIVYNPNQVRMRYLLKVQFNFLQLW
Assay: Fluorescence polarization probe displacement assay, PARP-2
Format: binding
Details: read-out: PARP-2 DC50; half maximal displacement concentration
Consider the following compounds; for each one, report its DC50.

Req: # value lookup — system PARP-2 FL (Homo sapiens (Human), UniProt Q9UGN5), readout DC50, item CO[C@H]1CC[C@@H](N2CCC(N3Cc4cccc(C(N)=O)c4C3=O)CC2)CC1
Resp: > 10 µM

Req: # value lookup — system PARP-2 FL (Homo sapiens (Human), UniProt Q9UGN5), readout DC50, item COc1cccc(CN2CCC(N3Cc4cccc(C(N)=O)c4C3=O)CC2)c1
Resp: > 10 µM

Req: # value lookup — system PARP-2 FL (Homo sapiens (Human), UniProt Q9UGN5), readout DC50, item CO[C@H]1CC[C@H](N2CCC(N3Cc4cccc(C(N)=O)c4C3=O)CC2)CC1
Resp: > 10 µM

Req: # value lookup — system PARP-2 FL (Homo sapiens (Human), UniProt Q9UGN5), readout DC50, item COC[C@H]1CC[C@@H](N2CCC(N3Cc4cccc(C(N)=O)c4C3=O)CC2)CC1
Resp: > 10 µM

Req: # value lookup — system PARP-2 FL (Homo sapiens (Human), UniProt Q9UGN5), readout DC50, item NC(=O)c1cccc2c1C(=O)N(CC1CCN(Cc3ccc(F)cc3)CC1)C2
Resp: 5.68 µM

Req: # value lookup — system PARP-2 FL (Homo sapiens (Human), UniProt Q9UGN5), readout DC50, item NC(=O)c1cc(Cl)cc2c1C(=O)N(C1CCN(C3CCC(F)(F)CC3)CC1)C2
Resp: > 10 µM

Req: # value lookup — system PARP-2 FL (Homo sapiens (Human), UniProt Q9UGN5), readout DC50, item NC(=O)c1cccc2c1C(=O)N(C1CCN(Cc3cccc(Cl)c3)CC1)C2
Resp: 4.15 µM

Req: # value lookup — system PARP-2 FL (Homo sapiens (Human), UniProt Q9UGN5), readout DC50, item NC(=O)c1cccc2c1C(=O)N(C1CCN(C3CCC4(CC3)OCCO4)CC1)C2
Resp: > 10 µM

Req: # value lookup — system PARP-2 FL (Homo sapiens (Human), UniProt Q9UGN5), readout DC50, item NC(=O)c1cc(F)cc2c1C(=O)N(C1CCN(C3CCC(Cl)(Cl)CC3)CC1)C2
Resp: > 10 µM

Req: # value lookup — system PARP-2 FL (Homo sapiens (Human), UniProt Q9UGN5), readout DC50, item COC[C@H]1CC[C@H](N2CCC(N3Cc4cccc(C(N)=O)c4C3=O)CC2)CC1
Resp: > 10 µM

Req: # value lookup — system PARP-2 FL (Homo sapiens (Human), UniProt Q9UGN5), readout DC50, item NC(=O)c1cccc2c1C(=O)N(C1CCN(CC3CCN(Cc4ccccc4)CC3)CC1)C2
Resp: > 10 µM

Req: # value lookup — system PARP-2 FL (Homo sapiens (Human), UniProt Q9UGN5), readout DC50, item COCCN1CCC(N2Cc3cccc(C(N)=O)c3C2=O)CC1
Resp: > 10 µM

Req: # value lookup — system PARP-2 FL (Homo sapiens (Human), UniProt Q9UGN5), readout DC50, item Cc1ccc(CN2CCC(N3Cc4cccc(C(N)=O)c4C3=O)CC2)s1
Resp: > 10 µM

Req: # value lookup — system PARP-2 FL (Homo sapiens (Human), UniProt Q9UGN5), readout DC50, item CCOc1cccc(CN2CCC(N3Cc4cccc(C(N)=O)c4C3=O)CC2)c1
Resp: > 10 µM

Req: # value lookup — system PARP-2 FL (Homo sapiens (Human), UniProt Q9UGN5), readout DC50, item NC(=O)c1cccc2c1C(=O)N(C1CCN(Cc3ccc4cc[nH]c4c3)CC1)C2
Resp: 5.97 µM

Req: # value lookup — system PARP-2 FL (Homo sapiens (Human), UniProt Q9UGN5), readout DC50, item NC(=O)c1cccc2c1C(=O)N(CCCN1CCN(c3cccc(Cl)c3)CC1)C2
Resp: 1.46 µM

Req: # value lookup — system PARP-2 FL (Homo sapiens (Human), UniProt Q9UGN5), readout DC50, item Cc1ccsc1CN1CCC(N2Cc3cccc(C(N)=O)c3C2=O)CC1
Resp: 9.4 µM

Req: # value lookup — system PARP-2 FL (Homo sapiens (Human), UniProt Q9UGN5), readout DC50, item NC(=O)c1cccc2c1C(=O)N(C1CCN(Cc3ccc4ccccc4n3)CC1)C2
Resp: 3.2 µM
